# study.system: UniProt:P04150
# Parameters: species or system Blood
pEC50: −log10 of the molar value.
value.kind: pEC50

Examples with answers:
CC(C)(C(=O)NC(N)=O)[C@@H]1c2ccc(-c3ccc(C(=O)N4CCOCC4)cc3)nc2Oc2c(F)cccc21
7.69
CC(C)Oc1ccc(-c2ccc3c(n2)Oc2c(F)cccc2[C@@H]3C(C)(C)C(=O)NC(N)=O)cn1
6.45
CCN(C)C(=O)c1ccc(-c2ccc3c(n2)Oc2ccccc2[C@@H]3C(C)(C)C(=O)Nc2nncs2)cc1
6.42
CC(C)(C(=O)NC(N)=O)[C@H]1c2ccccc2Oc2nc(-c3ccc(C(=O)N4CCOCC4)cc3)ccc21
5.52
CC(=O)NC(=O)C(C)(C)[C@@H]1c2ccc(-c3ccc(C(=O)N4CCCC4)cc3)nc2Oc2c(F)cccc21
6.66

A = CC(C)(C(=O)NC(N)=O)[C@H]1c2ccccc2Oc2nc(-c3ccc(C(=O)N4CCCC4)cc3)ccc21
B = CN(C)C(=O)c1ccc(-c2ccc3c(n2)Oc2ccccc2[C@@H]3C(C)(C)C(=O)Nc2nncs2)cc1
Short answer wanted: higher pEC50, A or B ? // respond with label for picked entry
A

---

# study.system: Cytochrome P450 2C19 (Homo sapiens, UniProt P33261)
# Sequence (P33261 whole entry): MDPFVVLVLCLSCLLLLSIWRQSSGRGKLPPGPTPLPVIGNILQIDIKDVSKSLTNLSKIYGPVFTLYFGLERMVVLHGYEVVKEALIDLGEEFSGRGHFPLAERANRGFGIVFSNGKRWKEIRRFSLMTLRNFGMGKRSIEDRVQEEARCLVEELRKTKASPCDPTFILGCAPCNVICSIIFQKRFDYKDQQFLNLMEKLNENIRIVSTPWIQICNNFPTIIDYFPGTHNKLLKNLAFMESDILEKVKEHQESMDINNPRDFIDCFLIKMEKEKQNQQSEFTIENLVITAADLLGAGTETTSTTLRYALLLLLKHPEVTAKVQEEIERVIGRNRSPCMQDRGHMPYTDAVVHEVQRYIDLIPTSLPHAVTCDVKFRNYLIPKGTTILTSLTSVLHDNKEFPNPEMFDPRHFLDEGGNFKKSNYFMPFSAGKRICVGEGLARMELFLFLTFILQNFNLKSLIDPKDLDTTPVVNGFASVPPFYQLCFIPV
value.kind: pIC50
Please keep in mind that pIC50 is minus log10 of the molar concentration; only the number is needed.

Hello, I am looking for reported pIC50 with Cytochrome P450 2C19 (Homo sapiens, UniProt P33261) for `CC(C)(C(=O)NC(N)=O)[C@@H]1c2ccc(-c3ccc(C(=O)N4CCOCC4)cc3)nc2Oc2c(F)cccc21` . Could you help?
4.96

---

# study.system: Glucocorticoid receptor (Homo sapiens, UniProt P04150)
# Sequence (P04150 whole entry): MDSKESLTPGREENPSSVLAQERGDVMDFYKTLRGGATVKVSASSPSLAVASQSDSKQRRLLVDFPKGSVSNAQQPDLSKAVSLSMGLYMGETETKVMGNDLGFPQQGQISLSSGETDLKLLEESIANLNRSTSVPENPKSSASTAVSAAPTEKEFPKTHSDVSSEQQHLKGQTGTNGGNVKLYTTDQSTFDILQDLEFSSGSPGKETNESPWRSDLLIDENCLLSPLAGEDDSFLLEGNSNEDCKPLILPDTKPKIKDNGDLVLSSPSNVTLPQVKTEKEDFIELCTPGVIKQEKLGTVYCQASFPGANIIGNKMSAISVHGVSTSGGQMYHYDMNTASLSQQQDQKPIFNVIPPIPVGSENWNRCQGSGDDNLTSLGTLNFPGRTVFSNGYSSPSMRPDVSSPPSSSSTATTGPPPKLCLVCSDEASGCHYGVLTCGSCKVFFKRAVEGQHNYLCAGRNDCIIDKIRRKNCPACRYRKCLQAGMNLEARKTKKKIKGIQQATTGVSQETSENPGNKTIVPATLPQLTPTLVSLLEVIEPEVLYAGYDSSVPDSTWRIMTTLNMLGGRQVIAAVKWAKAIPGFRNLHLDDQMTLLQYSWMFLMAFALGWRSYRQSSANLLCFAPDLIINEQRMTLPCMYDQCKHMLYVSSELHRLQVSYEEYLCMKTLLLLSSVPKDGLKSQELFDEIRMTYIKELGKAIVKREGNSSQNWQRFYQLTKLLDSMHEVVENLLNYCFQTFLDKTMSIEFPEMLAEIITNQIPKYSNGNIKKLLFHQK
# test.protocol: Agonist activity at glucocorticoid receptor in human A549 cells assessed as AP-1 transrepression by luciferase reporter gene assay
# Assay type: cell-based
pEC50: −log10 of the molar value.
value.kind: pEC50

a = CCN(C)C(=O)c1ccc(-c2ccc3c(n2)Oc2ccccc2[C@@H]3C(C)(C)C(=O)Nc2nncs2)cc1
b = CC(C)(C(=O)NC(N)=O)[C@H]1c2ccccc2Oc2nc(-c3ccc(C(=O)N4CCCC4)cc3)ccc21
Short answer wanted: higher pEC50, a or b ? // respond with label for picked entry
b

1 = CC(C)(C(=O)NC(N)=O)[C@H]1c2ccccc2Oc2nc(-c3ccc(C(=O)N4CCOCC4)cc3)ccc21
2 = CC(C)(C(=O)NC(=O)C1CCC1)[C@@H]1c2ccc(-c3ccc(C(=O)N4CCOCC4)cc3)nc2Oc2c(F)cccc21
3 = CC(C)(C(=O)NC(N)=O)[C@@H]1c2ccc(-c3ccc(C(=O)N4CCOCC4)cc3)nc2Oc2c(F)cccc21
4 = CN(C)C(=O)c1ccc(-c2ccc3c(n2)Oc2ccccc2[C@@H]3C(C)(C)C(=O)Nc2nncs2)cc1
# rank by pEC50, ascending (min first) Put the labels in the requested order and list them out.
4, 2, 1, 3
(4: 7.48, 2: 7.76, 1: 8.21, 3: 8.68)
